Let's look at some molecules and their measured % RH = Percent of high affinity binding sites for two site fit.
# Test system: sigma site
# test_protocol: Sigma site binding: inhibition of R(+)-[3H]3-PPP binding
# Parameters: species or system rat
# recorded_conditions: two site fit; value in parentheses (exception to better 2 site fit)

Example molecules with recorded % RH = Percent of high affinity binding sites for two site fit:
| molecule | result |
| --- | --- |
| CC(NCCCCc1ccccc1)C(O)c1ccc2c(c1)CCCS2 (centres unmarked) [Compound 2] | 72% |
| CC(C(O)c1ccc2c(c1)CCS2)N1CCC(Cc2ccccc2)CC1 (centres unmarked) [Compound 186] | 72% |
| C[C@H](NCCCCc1ccccc1)[C@@H](O)c1ccc2c(c1)CCS2 (relative stereo) [Compound 183] | 84% |
| CC(NCCCCc1ccccc1)C(O)c1ccc2c(c1)CCS2 (single isomer, unassigned) [Compound 185] | 63% |

For the next question, use this molecule.
*Q* Endpoint output: % RH = Percent of high affinity binding sites for two site fit of CC(NCCCCOc1ccccc1)C(O)c1ccc2c(c1)CCCS2 (centres unmarked) [Compound 24] . Value?
*A* 63%

* * *

# tgt: polyamine domain of the NMDA receptor-complex
# test_protocol: Binding of [125I]ifenprodil to rat cortical membranes (polyamine domain interaction)
# recorded_conditions: rat cortical membranes; mean ± s.e.m., n = 3 or 4; read-out: [125I] IFENPRODIL Kd
value_type: Kd

Answered examples (3):
| compound | tgt | Kd |
| --- | --- | --- |
| CC(C(O)c1ccc2c(c1)CCS2)N1CCC(Cc2ccccc2)CC1 (stereo not shown) | polyamine domain of the NMDA receptor-complex | 6.7 µM |
| OC(CN1CCC(Cc2ccc(F)cc2)CC1)c1ccc(Cl)cc1 (stereo not shown) [SL82.0715, reference compound] | polyamine domain of the NMDA receptor-complex | 2.3 µM |
| CC(NCCCCc1ccccc1)C(O)c1ccc2c(c1)CCS2 (single isomer, unassigned) [Compound 185] | polyamine domain of the NMDA receptor-complex | 3.5 µM |

Could you now consider this next compound?
*Q* // Kd lookup, key: C[C@H](NCCCCc1ccccc1)[C@@H](O)c1ccc2c(c1)CCS2 (relative stereo)
*A* 9.3 µM
